Value source: patent US20250154198A1

# assay target: T1, Nluc-IL23R fusion protein (human, UniProt Q5VWK5 22-629)
# T1 construct: range 22-629; Stably expressed in HEK293 cells; also called hIL-23R; human IL-23R fused to a Nanoluc luciferase enzyme; not shown: Nanoluc luciferase (Promega N1371 plasmid) at the N-terminus
# T1 sequence (looked up): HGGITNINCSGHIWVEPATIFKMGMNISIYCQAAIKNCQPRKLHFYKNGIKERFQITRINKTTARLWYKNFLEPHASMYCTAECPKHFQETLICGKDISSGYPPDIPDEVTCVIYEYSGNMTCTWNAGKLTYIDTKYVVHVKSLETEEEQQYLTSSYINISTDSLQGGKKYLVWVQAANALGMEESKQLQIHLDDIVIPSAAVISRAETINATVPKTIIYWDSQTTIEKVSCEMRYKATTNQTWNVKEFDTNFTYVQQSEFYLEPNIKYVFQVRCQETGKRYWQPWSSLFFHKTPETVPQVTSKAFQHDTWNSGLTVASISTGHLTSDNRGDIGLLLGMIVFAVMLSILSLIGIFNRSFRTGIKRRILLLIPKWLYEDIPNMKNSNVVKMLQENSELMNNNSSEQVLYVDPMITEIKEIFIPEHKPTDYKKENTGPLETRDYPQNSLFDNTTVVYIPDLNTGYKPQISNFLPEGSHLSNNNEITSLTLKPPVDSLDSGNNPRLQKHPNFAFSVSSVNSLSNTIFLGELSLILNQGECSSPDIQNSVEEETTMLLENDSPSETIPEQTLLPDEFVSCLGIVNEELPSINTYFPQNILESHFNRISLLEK
# method: BRET displacement of TAMRA-labelled peptide, Nluc-IL23R membranes
*1 amine or outer side, *2 acyl side, *3 side chain or, on linkers, in order; H or OH if unused. Bridges are numbered along the chain shown (N, C = ends). Primed or numbered codes have the meaning given here. Where no end group is shown, it is not given here. [ ]: non-standard residue; d: D form. 4‑Aminomethyl‑phenylacetyl = 4-aminomethyl-phenylacetyl unit, its amine closes the lactam, O=C(Cc1ccc(CN[*:1])cc1)[*:2]; 1,3‑dibromopropan‑2‑one(3) = linker giving 1,3-dithio-propan-2-one bridge -SCH2C(=O)CH2S- between Cys; 4‑Aminomethyl‑phenylacetyl″ = N-terminal cap residue, O=C(Cc1ccc(CN[*:1])cc1)[*:2]; 2Nal = N[C@@H](Cc1ccc2ccccc2c1)C(=O)O; AEF = NCCOc1ccc(C[C@H](N)C(=O)O)cc1; 3Pal = N[C@@H](Cc1cccnc1)C(=O)O; αMeL = CC(C)C[C@](C)(N)C(=O)O; CH2COCH2 = O=C(C[*:1])C[*:2]; 3Amb = NCc1cccc(C(=O)O)c1; Dab = NCC[C@H](N)C(=O)O
assay readout: pKi
The scale used: pKi is minus the common logarithm of the concentration in molar units.

Examples with their reported pKi follow.
| binder | assay readout | measured |
| --- | --- | --- |
| [4‑Aminomethyl‑phenylacetyl]SCWQC[AEF][2Nal][αMeL]E[dR]-NH2 (lactam (positions not given here); linker 3-6 via CH2COCH2; not fully specified (bridges); printed as [4-Aminomethyl-phenylacetyl](1c)*SC(2a)WQC(2a)[Y(2-aminoethoxy)][2-Nal][2-Me-Leu]E(1c)[{d}R]-[NH2]) [Compound 80] | pKi | 9.82 |
| [4‑Aminomethyl‑phenylacetyl]SEWQ[Dab][AEF][2Nal][αMeL]E-{NH‑3‑aminopropanoyl} (lactam N-10, 3-6) [Compound 137] | pKi | 9.29 |
| [4‑Aminomethyl‑phenylacetyl]SEWQ[Dab][AEF][2Nal][αMeL]E[Dab]-NH2 (lactam N-10, 3-6) [Compound 125] | pKi | 9.22 |
| [4‑Aminomethyl‑phenylacetyl]SCWQC[AEF][2Nal][αMeL]E[Dab]-NH2 (lactam (positions not given here); linker 3-6 via CH2COCH2; not fully specified (bridges); printed as [4-Aminomethyl-phenylacetyl](1c)*SC(2a)WQC(2a)[Y(2-aminoethoxy)][2-Nal][2-Me-Leu]E(1c)[Dab]-[NH2]) [Compound 82] | pKi | 10.18 |
| [4‑Aminomethyl‑phenylacetyl]SCWQC[AEF][2Nal][αMeL]E[Dab][3Pal]-NH2 (lactam N-10; linker 3-6 via 1,3‑dibromopropan‑2‑one(3)) [Compound 120] | pKi | 11.03 |

Documented pKi of [4‑Aminomethyl‑phenylacetyl]SCWQC[AEF][2Nal][αMeL]ER-NH2 (lactam N-10; linker 3-6 via CH2COCH2; SMILES CC(C)C[C@]1(C)NC(=O)[C@H](Cc2ccc3ccccc3c2)NC(=O)[C@H](Cc2ccc(OCCN)cc2)NC(=O)[C@@H]2CSCC(=O)CSC[C@H](NC(=O)[C@H](CO)NC(=O)Cc3ccc(cc3)CNC(=O)CC[C@@H](C(=O)N[C@@H](CCCNC(=N)N)C(N)=O)NC1=O)C(=O)N[C@@H](Cc1c[nH]c3ccccc13)C(=O)N[C@@H](CCC(N)=O)C(=O)N2) [Compound 52] : 10.32

Documented pKi of [4‑Aminomethyl‑phenylacetyl]SCWQC[AEF][2Nal][αMeL]ES-NH2 (lactam (positions not given here); linker 3-6 via CH2COCH2; not fully specified (bridges); printed as [4-Aminomethyl-phenylacetyl](1c)*SC(2a)WQC(2a)[Y(2-aminoethoxy)][2-Nal][2-Me-Leu]E(1c)S-[NH2]) [Compound 81] : 9.50

Documented pKi of [3Amb]SCWQC[AEF][2Nal][αMeL]E[dR]-NH2 (lactam N-10; linker 3-6 via CH2COCH2) [Compound 41] : 8.64

Documented pKi of [3Amb]SCWQC[AEF][2Nal][αMeL]ER[3Pal]-NH2 (lactam (positions not given here); linker 3-6 via CH2COCH2; not fully specified (bridges); printed as [(3-Aminomethyl)benzoyl](1c)*SC(2a)WQC(2a)[Y(2-aminoethoxy)][2-Nal][2-Me-Leu]E(1c)R[3-(3-Pyridyl)-Ala]-[NH2]) [Compound 78] : 10.69

Documented pKi of Ac-KTCWQC[AEF][2Nal][αMeL]E[Dab][3Pal]-NH2 (lactam 1-10; linker 3-6 via 1,3‑dibromopropan‑2‑one(3)) [Compound 155] : 11.09

Documented pKi of [4‑Aminomethyl‑phenylacetyl″]SEWQ[Dab][AEF][2Nal][αMeL]E[Dab][3Pal]-NH2 (lactam N-10, 3-6; SMILES CC(C)C[C@]1(C)NC(=O)[C@H](Cc2ccc3ccccc3c2)NC(=O)[C@H](Cc2ccc(OCCN)cc2)NC(=O)[C@@H]2CCNC(=O)CC[C@H](NC(=O)[C@H](CO)NC(=O)Cc3ccc(cc3)CNC(=O)CC[C@@H](C(=O)N[C@@H](CCN)C(=O)N[C@@H](Cc3cccnc3)C(N)=O)NC1=O)C(=O)N[C@@H](Cc1c[nH]c3ccccc13)C(=O)N[C@@H](CCC(N)=O)C(=O)N2) [Compound 122] : 11.27
